Test system: HOP-62 NSCLC
Assay: NCI-60 one-dose screen, 48 h (100 = growth as untreated, 0 = no growth, -100 = all killed)
Conditions: 10 µM
This is part of a sample that, as a whole, favours compounds with a hit. Of some 83,000 tested, about 20% had one in any assay.
Property name: growth (%)
Note: unit % is implicit; provide only the numeric part.

CCN(CC)Cc1cc(Nc2ccnc3cc(Cl)ccc23)ccc1OC 88
N#CCCN(NC(=O)OCc1ccccc1)C(=O)OCc1ccccc1 120
CCOC(=O)N/N=C\C(C)=N\NC(=O)OCC 96.3
O=C(Nc1nc2ccc(F)cc2s1)c1cc(-c2ccc(F)cc2)n2nc(-c3ccccc3)cc2n1 64.1
O=C1N=NC2=C1c1c3ccccc3c(O)n1CC2 91.6
COc1ccc2c(c1)sc1nc(-c3ccccc3)c(-c3ccc(O)c(OC)c3)n12 79.1

# input Could you share which growth value was measured for COc1cc(/C(=C2/O[C@@H]([C@H]3COC(C)(C)O3)[C@H]3OC(C)(C)O[C@@H]23)c2ccc3ccccc3c2)cc(OC)c1OC ?
# output 48

# input Another compound to check: Cc1ccc(S(=O)(=O)OCCN(CCOS(=O)(=O)c2ccc(C)cc2)c2c[nH]c(=O)[nH]c2=O)cc1
# output 108

# input Another compound to check: O=C(Nc1cccc(-n2cc(-c3ccncc3)c(-c3ccc(O)c(Cl)c3)n2)c1)Nc1ccc(Cl)c(Cl)c1
# output 8.83

====

System: SK-MEL-28 melanoma
Assay: NCI-60 one-dose screen, 48 h (100 = growth as untreated, 0 = no growth, -100 = all killed)
Settings: 10 µM
Compounds without any hit were thinned out: in the full panel of roughly 83,000, 20% have a hit.
Below, each entry is listed alongside its reported growth.
Note: unit % is implicit; provide only the numeric part.

Example cases with answers are listed next.
COc1ccc(-c2nc3sc(-c4ccccc4)c(-c4ccccc4)n3c2/C=C/C(=O)c2ccccn2)cc1 104
CC1(C)Cc2c(sc3ncn4nc(-c5ccc(O)cc5)nc4c23)CO1 73.5
COc1ccc(-c2nnc(-c3c(-c4ccccc4)nc4ncccn34)o2)cc1OC 112
O=C(O)CCCCSc1ncnc2nc[nH]c12 112

// below: growth requested for another compound
# input Could you share which growth value was measured for Cc1ccc(-c2n[nH]c(=O)c3noc(-c4ccc(C)cc4)c23)cc1 ?
# output 52

====

Test system: HCT-116 colon
Assay: NCI-60 one-dose screen, 48 h (100 = growth as untreated, 0 = no growth, -100 = all killed)
Details: 10 µM
Compounds without any hit were thinned out: in the full panel of roughly 83,000, 20% have a hit.
Below, each entry is listed alongside its reported growth.
Note: unit % is implicit; provide only the numeric part.

Molecule	Test system	Unit label	growth
Cc1ccc(C(=O)Nc2cccc(F)c2)cc1NC(=O)C1(c2ncnc3[nH]ccc23)CC1	HCT-116 colon	%	44.5
O=[N+]([O-])c1cccc(N=Cc2ccc3c(c2)OCO3)c1	HCT-116 colon	%	106
CN(C)C(=S)N/N=C\C=N/NC(=S)N(C)C	HCT-116 colon	%	0.438
O=c1[nH]c2ccc(Cl)cc2c2ccccc12	HCT-116 colon	%	38.4
CCCCCCCCCCCCCCCCN(C(C)c1ccccc1)S(=O)(=O)c1ccc(OC)c(N)c1 (stereo not given)	HCT-116 colon	%	101
O=C(O)c1ccc(Cl)cc1Nc1ccc(F)cc1	HCT-116 colon	%	72.8

# input Could you share which growth value was measured for CC/C(=C(/c1ccc(OCCN(C)C)cc1)c1ccc(OC(=O)CCCCCCCCC(=O)c2c(C)[nH]c(/C=C3\N=C(c4ccc[nH]4)C=C3OC)c2C)cc1)c1ccccc1 ?
# output 21.6

====

Test system: SNB-75 CNS
Assay: NCI-60 one-dose screen, 48 h (100 = growth as untreated, 0 = no growth, -100 = all killed)
Details: 10 µM
Compounds without any hit were thinned out: in the full panel of roughly 83,000, 20% have a hit.
Property name: growth (%)
Note: unit % is implicit; provide only the numeric part.

Example cases with answers are listed next.
Compound	Readout number
Nc1ccc2c(c1)C1(CCC2)NC(=O)NC1=O (stereo not given)	90.2
Cc1cc(O)c(C(C)(C)C)cc1Sc1cc(C(C)(C)C)c(O)cc1C	54.2
O=c1oc2cc(OS(=O)(=O)c3ccccc3)ccc2c2c1CCCCC2	69.5
COc1ccc(C2CC(c3ccc(N(C)C)cc3)=NN2c2ccc(S(N)(=O)=O)cc2)cc1 (stereo not given)	69.6
COc1cc(Cl)cc(-c2nn(-c3cccc(NC(=O)Nc4ccc(Cl)c(Cl)c4)c3)cc2-c2ccncc2)c1	16.2

# input Could you share which growth value was measured for CCOC(=O)C1CCc2c(ccc3ccccc23)N1CCC#N (stereo not given) ?
# output 74.2

# input Another compound to check: COc1ccc(/C=C2/CN(C(=O)c3ccc(C)cc3)C/C(=C\c3ccc(OC)cc3)C2=O)cc1
# output 82.7

# input Another compound to check: Cc1ccc2oc3nc(C)c(C(=O)NCc4ccccc4)cc3c(=O)c2c1
# output 88

# input Another compound to check: O=S(=O)(NCCCNc1nccc(-c2c(-c3ccc(F)cc3)nc3sccn23)n1)c1ccc2ccccc2c1
# output 50.1

# input Another compound to check: Cc1ccc(C(=O)N2C/C(=C/c3ccccc3)C(=O)/C(=C/c3ccccc3)C2)cc1
# output 67.9

====

System: SK-MEL-28 melanoma
Assay: NCI-60 one-dose screen, 48 h (100 = growth as untreated, 0 = no growth, -100 = all killed)
Conditions: 10 µM
About 83,000 compounds went through this panel and 20% of them were active in at least one assay; those are over-represented in the sample as a whole.
Note to self: use true only for growth readings below 90%; a reading exactly at 90% still gets false.

Molecule	Category label
Nc1nc(Nc2ccccc2)n[nH]1	false

# input Please state whether growth is below 90% for C=C(C(=O)c1ccccc1)C(NC(C)(C)C)c1ccccc1 (stereo unspecified)
# output true

# input Another molecule to check: COc1ccc2c(c1)O/C(=C\c1ccc([N+](=O)[O-])s1)C2=O
# output true

# input Another molecule to check: CCC(=O)N1C/C(=C/c2ccc(OC)cc2)C(=O)/C(=C/c2ccc(OC)cc2)C1
# output true

# input Another molecule to check: CCN(CC)CCOc1nc2ccccc2c2c1-c1ccc(OC)cc1C2=O
# output true

====

Tested on: UACC-257 melanoma
Assay: NCI-60 one-dose screen, 48 h (100 = growth as untreated, 0 = no growth, -100 = all killed)
Conditions: 10 µM
About 83,000 compounds went through this panel and 20% of them were active in at least one assay; those are over-represented in the sample as a whole.
Property name: growth (%)
Note: unit % is implicit; provide only the numeric part.

Example cases with answers are listed next.
Compound	Unit label	growth
O=C1Nc2ccc(Cl)cc2/C1=C\c1c(-c2ccc(Cl)cc2)nc2sc(C3CC3)nn12	%	63.2
OCC1OC(n2cnc3c(N/N=C\c4ccccn4)ncnc32)C(O)C1O (centres undefined)	%	38
O=S(=O)(NCCCNc1nccc(-c2c(-c3ccc(F)cc3)nc3sccn23)n1)c1ccc2ccccc2c1	%	56.8

# input Could you share which growth value was measured for O=C(N/N=C/c1cc2ccccc2c2ccccc12)c1cc(O)c(O)c(O)c1 ?
# output 75.3

# input Another compound to check: O=C(Nc1cccc(-n2cc(-c3ccncc3)c(-c3ccc(O)c(Cl)c3)n2)c1)Nc1cccc(C(F)(F)F)c1
# output -19

# input Another compound to check: CCN(CCCCCCN1CC(=O)N(CCCCCCN(CC)Cc2ccccc2OC)CC1=O)Cc1ccccc1OC
# output 108

# input Another compound to check: Oc1[nH]c2ccc(Cl)cc2c1/C=c1/ccc2c(c1)N=C(c1cccs1)N=2
# output 48.5

# input Another compound to check: C[C@]12CC[C@@H]3c4ccc(O)cc4C[C@@H](O)[C@H]3[C@@H]1CC[C@@H]2O
# output 88.6

# input Another compound to check: O=C1/C(=C\c2ccccc2)CN(C(=O)c2ccccc2F)C/C1=C\c1ccccc1
# output -10.1

====

System: UO-31 renal
Experiment: NCI-60 one-dose screen, 48 h
Conditions: 10 µM
Compounds without any hit were thinned out: in the full panel of roughly 83,000, 20% have a hit. Active and inactive are the calls of the source. How the source made its calls: active means growth percent below 10; inactive means the rest.
Please state which outcome applies, choosing from active, inactive

Completed entries (count: 5):
Molecule	Category label
COc1ccc2c(c1)nc(N)c1c3cccnc3cn21	inactive
ClCC#CCSc1ncnc2c1ncn2CC#CCCl	active
CC(C)(C)c1cc(Br)cc(C(C)(C)C)c1O	inactive
COc1ccc(-c2nn(-c3cccc(NC(=O)c4cc(C(F)(F)F)cc(C(F)(F)F)c4)c3)cc2-c2ccncc2)cc1Cl	inactive
CCOC(=O)C1(CC(C)C)CCOC1=O (stereo unspecified)	inactive

# input Fill in: this test's call for Cc1ccc(N=Nc2c(N)nc(N)[nH]c2=O)cc1C is ___
# output inactive

# input Another molecule to check: C/C(=N\Nc1nc2ccccc2s1)c1ccncn1
# output inactive
